- Test system: H1299 p53 R273H
- experiment.summary: Cell Proliferation Assay (CellTiter-Glo, CTG), H1299 p53 R273H (NClH1299-inducible p53 R273H)
- Format: cell-based
- setup.conditions: Homo sapiens, NCI-H1299, 120 h, CellTiter-Glo, H1299 p53 R273H, 5 days
Listed compounds paired with reported IC50

Some compounds with known IC50 results, for comparison:
CNC(=O)c1ccc(NCC#Cc2nc3c(N[C@H]4CCn5nccc5C4)cccn3c2SC(F)(F)F)c(OC)c1 : 5 to 8 µM
COc1cc(S(C)(=O)=O)ccc1NCC#Cc1nc2c(NC3CCN(CC(C)(C)O)CC3)cccn2c1CC(F)(F)F : 5 to 8 µM

Name the reported IC50 value associated with the compound `COc1cc(S(C)(=O)=O)ccc1NCC#Cc1nc2c(N[C@@H]3CCNC[C@@H]3F)cccn2c1SC(F)(F)F`
5 to 8 µM

Name the reported IC50 value associated with the compound `CNC(=O)c1ccc(NCC#Cc2nc3c(NC4CCN(C)CC4)cc(NC(=O)OC)cn3c2CC(F)(F)F)c(OC)c1`
≥ 10 µM

Where do these numbers come from? They come from patent US20260374766A1.
